# assay_summary: reduction of polyQ htt aggregates in cells – imaging, exon1htt(103Q)mCFP cells, high-content imaging, primary screen (AID 483);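 also: compound exposure lasted 3 days before fixation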
# study_conditions: exon1htt(103Q)mCFP cell line, aggregate imaging, at 2 µM; stronger effect = higher value
measurement_type: inhibition of aggregation (%)
One number for each entry, in %.

Known results for molecules:
[Q] Read off the recorded inhibition of aggregation for COc1ccc(NC(=O)Nc2ccccc2C)c(OC)c1
[A] -3.2

[Q] Provide inhibition of aggregation value for the following molecule: CC(=O)Nc1nc2c(c3c1c(=O)oc1ccccc13)CC(C)CC2 (centres undefined)
[A] 14.7

[Q] Identify measured inhibition of aggregation corresponding to CCCOc1cccc(NC(=O)c2c(-c3ccccc3)noc2C)c1
[A] 7.5

[Q] Provide measured inhibition of aggregation value, entry: COc1ccc(-c2noc(COc3ccc(Cl)c(C)c3)n2)cc1
[A] -13.5

[Q] Output inhibition of aggregation of COC(=O)CSc1nnc(-c2ccc(OC)cc2OC)o1
[A] 6.1

Respectfully, I request inhibition of aggregation for each entry included below.
1. CCN(CC(=O)NCc1cccs1)C(=O)c1cc(S(=O)(=O)N2CCOCC2)ccc1C
2. Cn1c(C(=O)NCCCN2CCN(c3ccc(F)cc3)CC2)cc2c(=O)n(C)c3ccccc3c21
3. COC(=O)Cn1c(CCS(=O)(=O)c2ccc(C)cc2)nc2ccccc21
4. CCOc1ccccc1NC(=O)C1CCCN1C(=O)OCc1ccccc1 (centres undefined)

[A]
-22.2
6.5
6.7
-8.5

For every item in the list below, what is its measured inhibition of aggregation?
1. O=C(c1ccco1)N1CCN(S(=O)(=O)c2ccc(C3CCCCC3)cc2)CC1
2. COc1ccc(C2C(C(C)=O)=C(C)N=c3s/c(=C/c4ccc5c(c4)OCO5)c(=O)n32)cc1 (centres undefined)
3. CN(CC(=O)N1CCCCC1)S(=O)(=O)c1cccc2cccnc12
4. Cc1cc(C)n2nc(C(=O)NCc3ccco3)nc2n1
5. Cc1sc2nc(SCc3nc4ccccc4[nH]3)n(Cc3ccco3)c(=O)c2c1C
6. Cc1nc(NC(=O)C2CC3CCCC(C2)C3=O)sc1C (centres undefined)
7. O=C(CN(Cc1ccco1)C(=O)c1cc(=O)[nH]c2ccccc12)Nc1ccccc1Br
8. Clc1ccc(Cl)c(-c2nn3c(COc4ccccc4)nnc3s2)c1

[A]
1. -1.8
2. -44.9
3. 9.7
4. 6.6
5. 17.5
6. -32.5
7. 11.6
8. -9.4

// each molecule listed below needs its inhibition of aggregation
1. COc1ccc(CN2C(=O)CN=C2Nc2ccc(C)cc2C)cc1
2. Cc1c(C)n(C(=O)CN2CCN(c3ccccn3)CC2)c2ccccc12

[A]
-10.3
2.9

====

Kindly state nuclei count for each of the entries shown.
# assay_summary: reduction of polyQ htt aggregates in cells – imaging, exon1htt(103Q)mCFP cells, high-content imaging, primary screen (AID 483);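 also: compound exposure lasted 3 days before fixation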;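 as to nuclei count: percent of the per-plate median nuclei count of sample wells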
# study_conditions: exon1htt(103Q)mCFP cell line, aggregate imaging, at 2 µM; measured here: cell count, toxicity
One number for each entry, in %.

[Q] Give reported nuclei count value for O=C(C1CCN(S(=O)(=O)c2cccnc2)CC1)N1CCN(c2ccc(Cl)cc2)CC1
[A] 109

[Q] Write down nuclei count measured for item COc1ccc2cc(C#N)c(NC(C)C)nc2c1
[A] 96.4

[Q] Please give the documented nuclei count of Cc1ncc(CO)c2c1OC(C)(C)OC2
[A] 106

[Q] Give nuclei count for COc1ccc(C2CC(c3ccc(Cl)cc3)Nc3nc(NC(=O)c4ccco4)nn32)cc1 (stereo not drawn)
[A] 98.1

[Q] Name the recorded nuclei count of the item Cc1cc(Cl)ccc1NC(=O)CSc1nnc(Cc2cccs2)n1Cc1ccco1 in your answer.
[A] 74.6

[Q] For the compound Cc1[nH]c(=O)[nH]c(=O)c1S(=O)(=O)N1c2ccc(F)cc2CCC1C (stereo not drawn) , give its measured nuclei count value.
[A] 112

[Q] Determine its reported nuclei count: COc1ccc(-n2nc(C(=O)Nc3ccc4c(c3)OCO4)c3c4ccccc4n(C)c3c2=O)cc1
[A] 47.3

[Q] Identify measured nuclei count associated with Cc1ccc(S(=O)(=O)N2CCOCC2)cc1C(=O)Nc1ccccn1
[A] 106

Parameter requested: nuclei count. Apply to each item below.
1. O=C(CN(CC1CCCO1)C(=O)CCC(=O)Nc1ccccn1)NCC1CCCO1 (stereo not drawn)
2. Cc1cc(N2CCN(C)CC2)nc(N2CCOCC2)n1
3. CCOC(=O)c1cccc(NC(=O)CCn2nnc3ccccc32)c1
4. C(=N\n1cnnc1)/c1cccc(OCCOc2ccccc2)c1

[A]
1: 122; 2: 125; 3: 112; 4: 96

[Q] Quick one: give measured nuclei count for COc1cccc(C2CC(c3ccccc3)n3ncnc3N2)c1 (stereo not drawn)
[A] 90.7
